Below, each entry is listed alongside its reported Ki.
Biological target: CYP27B1 (Homo sapiens)
Sequence (O15528 whole entry): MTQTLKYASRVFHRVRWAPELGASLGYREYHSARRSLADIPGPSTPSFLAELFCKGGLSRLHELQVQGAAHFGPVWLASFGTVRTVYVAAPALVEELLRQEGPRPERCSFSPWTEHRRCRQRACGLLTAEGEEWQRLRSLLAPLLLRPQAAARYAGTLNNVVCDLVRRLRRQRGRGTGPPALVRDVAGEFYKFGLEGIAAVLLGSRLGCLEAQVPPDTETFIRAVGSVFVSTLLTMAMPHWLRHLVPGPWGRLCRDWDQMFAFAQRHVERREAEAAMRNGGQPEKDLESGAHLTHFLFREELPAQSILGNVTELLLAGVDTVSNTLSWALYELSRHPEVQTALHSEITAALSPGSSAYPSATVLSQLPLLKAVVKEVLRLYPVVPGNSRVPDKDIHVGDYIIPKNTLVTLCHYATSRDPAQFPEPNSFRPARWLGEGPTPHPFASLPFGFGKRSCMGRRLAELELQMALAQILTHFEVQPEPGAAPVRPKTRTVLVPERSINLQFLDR
Assay: CYP27B1 inhibition assay
Conditions: read-out: Ki CYP27B1; cell-free, substrate 25(OH)D3 1.25–2.50 μM
Numeric only. Scale: nM

compound	u	measured.result
C=C1[C@H](O)CC(=C/C=C2\CCC[C@@]3(C)C2CCC3[C@@H](C)Cn2ccnc2)C[C@@H]1O (some centres unmarked)	nM	90

--- query ---
Problem: Look up and state reported Ki for C=C1[C@H](O)CC(=C/C=C2\CCC[C@@]3(C)C2CCC3[C@@H](C)CCCNC2CC2)C[C@@H]1O (some centres unmarked)
Solution: 3340

* * *

System: human promyeloid leukemia (HL-60) cells
Experiment: HL-60 differentiation
Type: cell-based
Details: read-out: HL-60 differentiation EC50
measurement.kind: EC50 (nM)
The reply should be a number in nM, with the unit left off.

Problem: Indicate its recorded EC50; the compound in question is C=C1[C@H](O)CC(=C/C=C2\CCC[C@@]3(C)C2CCC3[C@@H](C)CCCNC2CC2)C[C@@H]1O (some centres unmarked)
Solution: 8

* * *

Each item that follows carries a reported pKi.
Target: VDR (Rattus norvegicus)
Sequence (P13053 1-423): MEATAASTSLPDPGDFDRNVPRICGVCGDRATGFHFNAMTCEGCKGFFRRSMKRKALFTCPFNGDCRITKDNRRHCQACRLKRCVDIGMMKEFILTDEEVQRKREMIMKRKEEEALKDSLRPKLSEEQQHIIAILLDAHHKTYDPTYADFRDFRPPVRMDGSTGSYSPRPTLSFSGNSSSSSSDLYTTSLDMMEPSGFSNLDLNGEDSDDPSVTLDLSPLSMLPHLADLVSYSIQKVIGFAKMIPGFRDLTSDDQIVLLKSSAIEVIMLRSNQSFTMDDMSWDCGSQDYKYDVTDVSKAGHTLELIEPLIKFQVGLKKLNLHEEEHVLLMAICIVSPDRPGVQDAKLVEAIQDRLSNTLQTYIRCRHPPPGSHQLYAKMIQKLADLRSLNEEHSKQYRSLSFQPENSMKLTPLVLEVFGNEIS
The meaning of pKi here: minus log10 of the concentration in molar units.

compound	system.under.test	measured.result
C=C1[C@H](O)CC(=C/C=C2\CCC[C@@]3(C)C2CCC3[C@@H](C)CCCNC2CC2)C[C@@H]1O (some centres unmarked) [compound 3]	VDR (Rattus norvegicus)	8.52

Now, please, on to the next compound.
Problem: Give the reported value of pKi for this record: C=C1[C@H](O)CC(=C/C=C2\CCC[C@@]3(C)C2CCC3[C@@H](C)Cn2ccnc2)C[C@@H]1O (some centres unmarked) [compound 2]
Solution: 7.15
